- System: T1, recombinant human ASM protein (human, UniProt P17405 47-630)
- T1 construct: Recombinant human ASM in solution; also called acid sphingomyelinase (ASM) protein
- T1 sequence: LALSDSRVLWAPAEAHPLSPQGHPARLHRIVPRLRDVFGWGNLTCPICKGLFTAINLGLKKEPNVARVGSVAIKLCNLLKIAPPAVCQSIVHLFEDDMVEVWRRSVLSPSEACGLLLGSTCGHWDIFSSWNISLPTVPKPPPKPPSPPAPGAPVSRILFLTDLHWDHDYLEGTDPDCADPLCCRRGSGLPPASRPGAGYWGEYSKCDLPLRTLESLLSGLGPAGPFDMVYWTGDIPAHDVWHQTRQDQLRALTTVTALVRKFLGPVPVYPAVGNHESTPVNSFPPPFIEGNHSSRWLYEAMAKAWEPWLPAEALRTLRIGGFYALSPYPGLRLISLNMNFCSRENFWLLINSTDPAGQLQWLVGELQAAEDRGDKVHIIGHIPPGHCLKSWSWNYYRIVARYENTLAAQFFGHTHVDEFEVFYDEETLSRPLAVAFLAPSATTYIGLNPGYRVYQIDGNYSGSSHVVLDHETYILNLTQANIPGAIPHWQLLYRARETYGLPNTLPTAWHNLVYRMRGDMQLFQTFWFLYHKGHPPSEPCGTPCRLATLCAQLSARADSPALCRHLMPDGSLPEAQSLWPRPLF
- Test: BLI (Octet), antibody on AHC sensor
Lab note: cut-off is 1 nM. Strictly less in Kd is 1. Exactly 1 nM or more is 0.

binder="#9104v-H19 (antibody, human IgG4 S228P, lambda, V domains shown, Full-length IgG, lambda) VH: EVQLLESGGGLVQPGGSLRLSCAASGFTFSNYYMSWVRQAPGKGLEWVSGIYYGSGVPYYADSVKGRFTISRDNSKNTLYLQMNSLRAEDTAVYYCARDTPGFDYWGQGTLVTVSS VL: QSVLTQPPSASGTPGQRVTISCTGSSSNIGNNAVNWYQQLPGTAPKLLIYYDSHRPSGVPDRFSGSKSGTSASLAISGLRSEDEADYYCGAWDYSLSAYVFGGGTKLTVLG" classification=1
binder="#9104v-H26 (antibody, human IgG4 S228P, lambda, V domains shown, Full-length IgG, lambda) VH: EVQLLESGGGLVQPGGSLRLSCAASGFTFSNYYMSWVRQAPGKGLEWVSGTYYASGNAYYADSVKGRFTISRDNSKNTLYLQMNSLRAEDTAVYYCARDTPGFDYWGQGTLVTVSS VL: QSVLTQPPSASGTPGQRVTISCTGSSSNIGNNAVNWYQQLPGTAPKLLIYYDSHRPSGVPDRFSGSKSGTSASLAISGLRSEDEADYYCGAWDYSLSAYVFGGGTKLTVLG" classification=0
binder="#9104v-H13 (antibody, human IgG4 S228P, lambda, V domains shown, Full-length IgG, lambda) VH: EVQLLESGGGLVQPGGSLRLSCAASGFTFSNYYMSWVRQAPGKGLEWVSGIYYGSGIPYYANSVKGRFTISRDNSKNTLYLQMNSLRAEDTAVYYCARDTPGFDYWGQGTLVTVSS VL: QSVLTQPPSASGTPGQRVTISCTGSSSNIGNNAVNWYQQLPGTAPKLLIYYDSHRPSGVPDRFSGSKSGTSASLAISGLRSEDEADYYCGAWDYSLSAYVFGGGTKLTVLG" classification=1
binder="#9104v-H02 (antibody, human IgG4 S228P, lambda, V domains shown, Full-length IgG, lambda) VH: EVQLLESGGGLVQPGGSLRLSCAASGFTFSNYYMSWVRQAPGKGLEWVSGIYFGSGDIRYADSVKGRFTISRDNSKNTLYLQMNSLRAEDTAVYYCARDTPGFDYWGQGTLVTVSS VL: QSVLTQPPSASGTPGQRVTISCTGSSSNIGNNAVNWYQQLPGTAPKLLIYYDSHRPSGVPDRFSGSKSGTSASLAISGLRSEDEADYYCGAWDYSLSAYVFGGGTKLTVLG" classification=0
